From: the NIST ThermoML archive (doi:10.1016/j.jct.2018.02.014)

TEST_NAME: activity coefficient (dimensionless); of the first substance listed, at infinite dilution; xn = mol fraction of the nth substance listed
EXPERIMENTAL_CONTEXT: 328.15 K; 101.33 kPa; Liquid; Chromatography; x1 = 0
MEASURED_QUANTITY: activity coefficient

>  <COMPOUND>
CCc1ccccc1 [ethylbenzene] + CC[N+]1(C)CCOCC1.N#CN=C=[N-]

>  <activity coefficient>
15.3

$$$$

[A] CC(C)CO [2-methyl-1-propanol] + CC[N+]1(C)CCOCC1.N#CN=C=[N-]
[B] CO [methanol] + CC[N+]1(C)CCOCC1.N#CN=C=[N-]
[C] CCCc1ccccc1 [propylbenzene] + CC[N+]1(C)CCOCC1.N#CN=C=[N-]
[D] CCCC(C)=O [pentan-2-one] + CC[N+]1(C)CCOCC1.N#CN=C=[N-]
Q) Output the entries ranked by activity coefficient from maximum down to minimum. Response format: the labels, sorted as the prompt asks.
A) C, D, A, B
(C: 29.1, D: 5.26, A: 2.93, B: 0.631)

====

TEST_NAME: activity coefficient (dimensionless); of the first substance listed, at infinite dilution; xn = mol fraction of the nth substance listed
EXPERIMENTAL_CONTEXT: 348.15 K; 101.33 kPa; Liquid; Chromatography; x1 = 0
MEASURED_QUANTITY: activity coefficient

[1] CC(C)O [propan-2-ol] + CC[N+]1(C)CCOCC1.N#CN=C=[N-]
[2] C1CCCCCCC1 [cyclooctane] + CC[N+]1(C)CCOCC1.N#CN=C=[N-]
Q) For 1 and 2 , which recorded activity coefficient is lower? Write the label of whichever entry you select.
A) 1

[I] CCCCCCCC [octane] + CC[N+]1(C)CCOCC1.N#CN=C=[N-]
[II] CC(C)OC(C)C [diisopropyl ether] + CC[N+]1(C)CCOCC1.N#CN=C=[N-]
[III] CCCC=O [butanal] + CC[N+]1(C)CCOCC1.N#CN=C=[N-]
Q) Number of compounds to sort: 3. Sort criterion: activity coefficient, ascending. Response format: the labels, sorted as the prompt asks.
A) III, II, I

====

TEST_NAME: activity coefficient (dimensionless); of the first substance listed, at infinite dilution; xn = mol fraction of the nth substance listed
EXPERIMENTAL_CONTEXT: 358.15 K; 101.33 kPa; Liquid; Chromatography; x1 = 0
MEASURED_QUANTITY: activity coefficient

>  <MOLECULE>
CC(C)CO [2-methyl-1-propanol] + CC[N+]1(C)CCOCC1.N#CN=C=[N-]

>  <VALUE>
2.73

$$$$

[A] CCC(C)(C)OC [2-methoxy-2-methylbutane] + CC[N+]1(C)CCOCC1.N#CN=C=[N-]
[B] CC(C)OC(C)C [diisopropyl ether] + CC[N+]1(C)CCOCC1.N#CN=C=[N-]
[C] CCCCCO [pentan-1-ol] + CC[N+]1(C)CCOCC1.N#CN=C=[N-]
Q) Output the entries ranked by activity coefficient from maximum down to minimum. Response format: the labels, sorted as the prompt asks.
A) B, A, C
(B: 128, A: 62.2, C: 4.49)

[a] CCOC(C)=O [ethyl acetate] + CC[N+]1(C)CCOCC1.N#CN=C=[N-]
[b] C1CCCCCCC1 [cyclooctane] + CC[N+]1(C)CCOCC1.N#CN=C=[N-]
[c] C1CCOC1 [tetrahydrofuran] + CC[N+]1(C)CCOCC1.N#CN=C=[N-]
Q) Output the entries ranked by activity coefficient from maximum down to minimum. Response format: the labels, sorted as the prompt asks.
A) b, a, c
(b: 242, a: 6.71, c: 3.82)
